# test.system: Nitric oxide synthase 3 (Homo sapiens)
# Sequence (P29474 whole entry): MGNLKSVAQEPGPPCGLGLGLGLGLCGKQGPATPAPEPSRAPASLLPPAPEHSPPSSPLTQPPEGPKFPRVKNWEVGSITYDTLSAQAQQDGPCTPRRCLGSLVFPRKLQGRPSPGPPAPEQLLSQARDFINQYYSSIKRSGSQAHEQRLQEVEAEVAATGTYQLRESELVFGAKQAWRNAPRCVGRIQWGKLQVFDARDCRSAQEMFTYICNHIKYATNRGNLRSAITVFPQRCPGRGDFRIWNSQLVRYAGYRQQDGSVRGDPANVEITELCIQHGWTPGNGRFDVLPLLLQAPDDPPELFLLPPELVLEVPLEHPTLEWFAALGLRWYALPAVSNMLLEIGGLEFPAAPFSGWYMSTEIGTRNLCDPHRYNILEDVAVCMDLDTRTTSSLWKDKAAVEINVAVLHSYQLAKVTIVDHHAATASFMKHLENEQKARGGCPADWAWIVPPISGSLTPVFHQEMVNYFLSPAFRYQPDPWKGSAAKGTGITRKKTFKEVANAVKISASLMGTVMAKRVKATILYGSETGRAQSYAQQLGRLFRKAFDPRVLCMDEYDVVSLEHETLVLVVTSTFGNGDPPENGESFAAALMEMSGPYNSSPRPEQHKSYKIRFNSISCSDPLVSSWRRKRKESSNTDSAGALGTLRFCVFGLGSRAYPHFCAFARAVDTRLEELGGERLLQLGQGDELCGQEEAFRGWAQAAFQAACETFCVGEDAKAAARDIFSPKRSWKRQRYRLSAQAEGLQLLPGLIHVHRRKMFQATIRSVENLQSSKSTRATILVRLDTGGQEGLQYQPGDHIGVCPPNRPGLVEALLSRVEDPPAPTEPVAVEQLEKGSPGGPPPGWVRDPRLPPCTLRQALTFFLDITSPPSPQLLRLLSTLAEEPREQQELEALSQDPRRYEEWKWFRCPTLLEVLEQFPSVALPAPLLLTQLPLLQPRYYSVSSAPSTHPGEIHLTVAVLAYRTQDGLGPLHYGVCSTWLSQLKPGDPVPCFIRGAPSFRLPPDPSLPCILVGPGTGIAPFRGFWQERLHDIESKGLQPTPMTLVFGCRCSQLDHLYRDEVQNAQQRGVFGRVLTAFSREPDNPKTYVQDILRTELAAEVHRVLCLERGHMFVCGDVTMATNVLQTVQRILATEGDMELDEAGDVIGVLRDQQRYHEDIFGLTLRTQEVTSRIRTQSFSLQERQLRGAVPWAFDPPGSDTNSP
# assay.overview: Inhibition of eNOS in LPS treated human THP1 cell homogenate assessed as conversion of L-[2,3-3H]arginine to L-[2,3-3H]citrulline pre-incubated 1 hr before LPS challenge by whole cell assay
pIC50: −log10 of the molar value.
observation.type: pIC50

// worked examples, pIC50 included
CC(=N)NCc1cccc(CNS(=O)(=O)c2ccc(C)cc2)c1 | 3.52
CCOC(=O)N1CCC(NC(C)=N)CC1 | 4.05

1 = CCC(NC(C)=N)c1ccccc1 (racemic)
2 = CC(=N)N[C@@H](C)c1ccccc1
3 = CC(=N)NCc1cccc(CNCc2ccncc2)c1
Hello, I need these entries ordered by pIC50, highest reading first. Thanks! A ranking is expressed here by listing the labels in the requested order.
3, 1, 2
